B1: Osa-1-4 twister ribozyme (parent)
chain: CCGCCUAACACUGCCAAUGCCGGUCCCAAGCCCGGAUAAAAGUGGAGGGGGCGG

Variants of: B1
assay_text: self-cleavage, relative activity (ratio to wild type); higher = more cleavage; co-transcriptional
The entries below are paired with their reported self-cleavage.

Request: Returns the measured self-cleavage for the input variant. Input: A41G U37G
Response: 0.87
